B1: LINE1-full (parent)
chain: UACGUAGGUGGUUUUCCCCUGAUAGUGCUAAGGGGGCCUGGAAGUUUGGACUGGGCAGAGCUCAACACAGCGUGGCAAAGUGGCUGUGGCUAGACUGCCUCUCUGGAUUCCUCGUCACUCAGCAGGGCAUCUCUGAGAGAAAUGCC

- Variants of: B1
- Test Protocol: self-cleavage, relative activity (ratio to wild type); higher = more cleavage; in vitro, sequencing; the parent is a self-cleaving ribozyme

- Sequence Chain: "UACGUAGGUGGUUUUCCCCUGAUAGUGCUAAGGGGGCCUGGAAGUUUGGACUGGGCAGAGCUCAACACAGCGUGGCAAAGUGGCUGUGGCUAGAUUGCCUCUCUGGAUUCCUCGUCACUCAGCAGGGCACCUCUGAGAGAAAUGCC [C95U U130C]"
  self-cleavage: 0.21
- Sequence Chain: "UACGUAGGUGGAUUUCCCCUGAUAGUGCUAAGGGGGCCUGGAAGUUUGGACUGGGCAGAGCUCACCACAGCGUGGCAAAGUGGCUGUGGCUAGACUGCCUCUCUGGAUUCCUCGUCACUCAGCAGGGCAUCUCUGAGAGAAAUGCC [U12A A65C]"
  self-cleavage: 0.14
- Sequence Chain: "UACGUAGGUGGUUUUCCCCUGAUAGUGCUAAGGGGGCCUGGAAGUUAGGACUGGGCAGAGCUCAACACAGCGUGGCGAAGUGGCUGUGGCUAGACUGCCUCUCUGGAUUCCUCGUCACUCAGCAGGGCAUCUCUGAGAGAAAUGCC [U47A A77G]"
  self-cleavage: 2.01
